test system: THP-1 cells; test: TNFα generation assay; type: cell-based, human; details: Homo sapiens, THP-1, THP-1 cells; Table 22; read-out: IC50 in TNFα generation assay
pIC50: −log10 of the molar value.
resultType: pIC50

Lab note: THP-1 cells assay, enter pIC50 for Cn1cc(-c2cncc(Nc3nc(N[C@@H]4CCCC[C@@H]4N)c(F)cc3C(N)=O)c2)cn1 (relative stereo) here 6.70 to 6.89

Lab note: THP-1 cells assay, enter pIC50 for C[C@H](N)[C@@H](CC1CC1)Nc1nc(Nc2cncc3ccccc23)c(C(N)=O)cc1F here 6.89 to 7.19

Recall the reported pIC50 of CCOc1cc(Nc2nc(N[C@H](C)[C@H](C)N)c(F)cc2C(N)=O)ccn1 (racemic) when tested on THP-1 cells. 6.70 to 6.89

Give pIC50 only, for NC(=O)c1cc(F)c(N[C@@H]2CCCC[C@@H]2N)nc1Nc1cc(F)c2[nH]ccc2c1 (relative stereo) , using THP-1 cells data. > 7.19

====

tested on: THP-1 cells; experiment: TNFα generation assay; format: cell-based, human; conditions: Homo sapiens, THP-1, THP-1 cells; Table 22; read-out: IC50 in TNFα generation assay
pIC50: −log10 of the molar value.
resultType: pIC50

Please report pIC50 for the following compound: CCn1nc(F)c2ccc(Nc3nc(NC4CCCCC4N)c(F)cc3C(N)=O)cc21 (stereo not drawn) [Example 002-199] 6.70 to 6.89

====

biological target: glutathione S-transferase (GST)-fused full-length human Syk protein (Homo sapiens, UniProt P43405); construct: (GST)-fused full-length human Syk protein; GST (glutathione S-transferase); purchased Carna Biosciences; assay: Syk enzyme assay; assay type: biochemical; conditions: Syk enzyme assay, Test Example 1; read-out: IC50 of Syk-inhibitory activity
pIC50: −log10 of the molar value.
# pIC50 per entry

A selection of reference data follows.
For CC[C@@H](Nc1nc(Nc2ccc3c(cnn3CCOC)c2)c(C(N)=O)cc1F)[C@H](C)N , write its pIC50. > 8.00

Using known records, supply pIC50 for COC(C)CCOc1ccc2cc(Nc3nc(NC4CCCCC4N)c(F)cc3C(N)=O)ccc2n1 (stereo not shown) > 8.00

State its pIC50 for this compound: NC(=O)c1cc(F)c(NC2CCCCC2N)nc1Nc1ccc(N2CCCCC2=O)nc1 (stereo not shown) 6.00 to 7.00

New cases:
Fill in pIC50 for record NC(=O)c1cc(F)c(NC2CCCCC2N)nc1Nc1ccnc(-c2cccc(Cl)c2F)c1 (stereo not shown) > 8.00

For the compound CCNc1nc(Nc2cnc3ccccc3c2)c(C(N)=O)cc1F , report pIC50. 6.00 to 7.00

Answer with the recorded pIC50 of NC(=O)c1cc(F)c(N[C@H](Cc2ccccc2)C(N)=O)nc1Nc1cnc2ccccc2c1 only. 7.30 to 8.00

Query pIC50 for COc1ncc(Nc2nc(NC3CCCCC3N)c(F)cc2C(N)=O)cc1-n1cccn1 (stereo not shown) 7.30 to 8.00

Supply pIC50 value. Item: COc1ncc(Nc2nc(N[C@@H]3CCCC[C@@H]3N)c(F)cc2C(N)=O)cc1N1CCOCC1 6.00 to 7.00

Entry CC[C@@H](Nc1nc(Nc2ccc3c(OC)nccc3c2)c(C(N)=O)cc1F)[C@H](C)N needs its pIC50 filled in; supply it. > 8.00

Tell me measured pIC50 for NC(=O)c1cc(F)c(N[C@@H]2CCCC[C@@H]2N)nc1Nc1cncc(-n2nccn2)c1 please. > 8.00

Values compiled from patent US8895585B2.
